System: Shigella flexneri
procedure-text: Antibacterial activity against Shigella flexneri MTCC 1457 assessed as growth inhibition by agar streak dilution method
Assay type: functional
// reported MIC per item
parameter: MIC (µg/mL)

> print(dat)
                                smiles.entry  unit.name  bound.operator  measured.value
 1  COc1ccc2nc(NC(=O)CSc3nnc(-c4cc5ccccc5oc4=O)o3)sc2c1      µg/mL               =              50
 2  O=C(CSc1nnc(-c2cc3ccccc3oc2=O)o1)Nc1nc2ccc(Br)cc2s1      µg/mL               =              50
 3  O=C(CSc1nnc(-c2cc3ccccc3oc2=O)o1)Nc1nc2ccc(Cl)cc2s1      µg/mL               =              25
 4  O=C(CSc1nnc(-c2cc3ccccc3oc2=O)o1)Nc1ccc([N+](=O)[O-])cc1      µg/mL               =             100
 5  O=C(CSc1nnc(-c2cc3ccccc3oc2=O)o1)Nc1nc2ccc([N+](=O)[O-])cc2s1      µg/mL               =             100
 6  CC(=O)Nc1ccc(NC(=O)CSc2nnc(-c3cc4ccccc4oc3=O)o2)cc1      µg/mL               >             100
 7  N#Cc1ccc2nc(NC(=O)CSc3nnc(-c4cc5ccccc5oc4=O)o3)sc2c1      µg/mL               >             100
 8  CCOc1ccc(NC(=O)CSc2nnc(-c3cc4ccccc4oc3=O)o2)cc1      µg/mL               =             100
 9  O=C(CSc1nnc(-c2cc3ccccc3oc2=O)o1)Nc1ccc(Br)cc1      µg/mL               =             100
10  N#Cc1ccc(NC(=O)CSc2nnc(-c3cc4ccccc4oc3=O)o2)cc1      µg/mL               >             100

----------
Test system: Shigella flexneri
procedure-text: Antibacterial activity against Shigella flexneri MTCC 1457 assessed as growth inhibition by agar streak dilution method
Assay type: functional
parameter: MIC (µg/mL)

> print(dat)
                               smiles.entry  measured.value
1  CC(=O)Nc1ccc2nc(NC(=O)CSc3nnc(-c4cc5ccccc5oc4=O)o3)sc2c1             100
2  O=C(CSc1nnc(-c2cc3ccccc3oc2=O)o1)Nc1nc2ccccc2s1             100
3  O=C(O)c1cn(C2CC2)c2cc(N3CCNCC3)c(F)cc2c1=O            1.56

----------
Each record here notes measured MIC.
Test system: Bacillus cereus
procedure-text: Antibacterial activity against Bacillus cereus MTCC 430 assessed as growth inhibition by agar streak dilution method
Type: functional
parameter: MIC

> print(dat)
                               smiles.entry  measured.value
1  O=C(CSc1nnc(-c2cc3ccccc3oc2=O)o1)Nc1nc2ccc(I)cc2s1       100 µg/mL
2  Cc1ccc(NC(=O)CSc2nnc(-c3cc4ccccc4oc3=O)o2)cc1        50 µg/mL
3  N#Cc1ccc(NC(=O)CSc2nnc(-c3cc4ccccc4oc3=O)o2)cc1       100 µg/mL
4  O=C(CSc1nnc(-c2cc3ccccc3oc2=O)o1)Nc1ccc(Br)cc1      12.5 µg/mL
